EC50 values, listed per item
# Test system: Human immunodeficiency virus 1
# METHOD_NOTES: Antiviral activity against HIV 1 harboring reverse transcriptase Y188L mutant infected in human MT4 cells assessed as inhibition of virus-induced cytopathic effect after 5 days by MTT assay
# Format: functional, organism-based
# ASSAY_CONDITIONS: Human immunodeficiency virus 1, MT4, 120 h
ENDPOINT: EC50 (nM)

N#Cc1ccc(Nc2nc(N)cc(Cc3c(F)cccc3F)n2)cc1; 108
Cc1cnc(Nc2ccc(C#N)cc2)nc1C(C)c1c(F)cccc1F (stereo unspecified); 31.4
Cc1cnc(Nc2ccc(C#N)cc2)nc1Cc1c(F)cccc1F; 1020
CC(c1ccnc(Nc2ccc(C#N)cc2)n1)c1c(F)cccc1F (stereo unspecified); 100
